The reported measurements were obtained from the supplement of paper PMC10567573.

B1: HDAC6 (parent)
chain: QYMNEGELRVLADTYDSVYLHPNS

variants of: B1; test: protein stability index of a GFP-peptide fusion (GPS, HEK-293T) (PSI 1-6); higher = more stable; conditions: c terminus: a fixed tail appended;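 further: lentivirally expressed fusions sorted by FACS into six bins by GFP to DsRed ratio, PSI derived from sequencing read proportions per bin multiplied by bin number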
// f strictly below 2 in protein stability index; t otherwise

{"change": "H21K", "class-name": "f"}
{"change": "T14Y", "class-name": "t"}
{"change": "S24Q", "class-name": "t"}
{"change": "Q1T", "class-name": "f"}
{"change": "R9N", "class-name": "t"}
{"change": "S17C", "class-name": "t"}
{"change": "E5V", "class-name": "f"}
{"change": "R9C", "class-name": "f"}
{"change": "E7L", "class-name": "t"}
{"change": "Q1M", "class-name": "f"}

(Q) Kindly determine if protein stability index recorded for H21F is above or exactly 2.
(A) t

(Q) Likewise for S24D ?
(A) t

(Q) And A12Y ?
(A) t

(Q) What would you report for M3E ?
(A) t

(Q) Queued: Y19M
(A) f

(Q) // next record P22F
(A) f

(Q) What do you get for V18I ?
(A) f

(Q) Next up: H21C
(A) t

(Q) Try this variant next: E5G
(A) t

(Q) Here is the next variant: E7Y
(A) f

(Q) Would you kindly repeat that for N23W ?
(A) f

(Q) Queued: R9V
(A) t

(Q) Now this one: T14K
(A) f
